- assay system: T1, Macaca fascicularis IL2Rγ extracellular domain expressed with a C-terminal myc-myc-hexahistidine tag (Macaca fascicularis)
- T1 construct: also called mfIL-2Rg-MMH; mfIL-2RG-MMH
- T1 chain: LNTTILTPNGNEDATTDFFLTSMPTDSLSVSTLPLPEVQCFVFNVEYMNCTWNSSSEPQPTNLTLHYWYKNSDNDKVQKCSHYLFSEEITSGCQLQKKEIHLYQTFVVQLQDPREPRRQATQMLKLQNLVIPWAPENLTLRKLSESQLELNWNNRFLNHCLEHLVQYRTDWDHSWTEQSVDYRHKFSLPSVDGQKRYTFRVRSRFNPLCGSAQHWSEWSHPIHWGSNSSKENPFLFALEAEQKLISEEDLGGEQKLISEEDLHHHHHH
- protocol summary: SPR, captured mAb, 25C, dissociation pH 6.0
Listing of entries alongside the reported koff.
Record the value in s⁻¹, omitting the unit from your answer.

Check out these entries, answers already filled in.
What does the record list as koff for H4H12886P (antibody, human IgG4 S228P, kappa, V domains shown, anti-IL2Rgamma mAb expressed with human IgG4 Fc) VH: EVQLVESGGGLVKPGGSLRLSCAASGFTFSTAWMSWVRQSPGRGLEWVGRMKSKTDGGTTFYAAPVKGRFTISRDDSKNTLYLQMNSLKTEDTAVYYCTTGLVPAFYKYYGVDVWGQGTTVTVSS VL: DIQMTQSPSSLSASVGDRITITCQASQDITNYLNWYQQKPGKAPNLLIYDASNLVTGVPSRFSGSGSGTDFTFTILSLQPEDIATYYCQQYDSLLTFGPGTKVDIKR ?
0.000682

Next: H4H12884P (antibody, human IgG4 S228P, kappa, V domains shown, anti-IL2Rgamma mAb expressed with human IgG4 Fc) VH: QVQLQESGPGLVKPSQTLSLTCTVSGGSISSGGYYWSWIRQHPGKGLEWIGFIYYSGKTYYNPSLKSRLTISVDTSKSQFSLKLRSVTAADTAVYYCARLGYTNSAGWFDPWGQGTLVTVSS VL: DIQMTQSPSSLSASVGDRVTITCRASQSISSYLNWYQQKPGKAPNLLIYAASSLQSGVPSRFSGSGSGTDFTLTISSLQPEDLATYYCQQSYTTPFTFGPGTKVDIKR
0.00159

Turning to the following binder.
What does the record list as koff for H4H12871P (antibody, human IgG4 S228P, kappa, V domains shown, anti-IL2Rgamma mAb expressed with human IgG4 Fc; also called REGN9434) VH: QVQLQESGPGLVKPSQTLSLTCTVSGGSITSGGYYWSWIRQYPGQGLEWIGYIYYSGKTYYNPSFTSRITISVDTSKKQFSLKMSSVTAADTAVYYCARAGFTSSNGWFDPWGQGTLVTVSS VL: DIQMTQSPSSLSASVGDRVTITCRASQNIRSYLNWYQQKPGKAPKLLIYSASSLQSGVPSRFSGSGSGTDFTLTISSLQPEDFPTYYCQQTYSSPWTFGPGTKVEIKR ?
0.00116

Data origin, for the record: patent US20200247894A1
